# MIC annotations
Test system: Trichophyton mentagrophytes
Assay: Antifungal activity against Trichophyton mentagrophytes ATCC 9972
Type: functional

Previously resolved entries follow.
molecule=O=C1CCC(=O)N1c1ccccc1 outcome_measure=MIC reported="> 250 µg/mL"
molecule=O=C(O)/C=C\C(=O)NCc1ccccc1 outcome_measure=MIC reported="> 250 µg/mL"
molecule=CC1=CC(=O)N(CCCc2ccccc2)C1=O outcome_measure=MIC reported="15.6 µg/mL"
molecule=O=C(O)/C=C\C(=O)NCCCc1ccccc1 outcome_measure=MIC reported="> 250 µg/mL"
molecule=O=C1C(Cl)=C(Cl)C(=O)N1CCCCc1ccccc1 outcome_measure=MIC reported="3.9 µg/mL"
molecule=CN(C/C=C/C#CC(C)(C)C)Cc1cccc2ccccc12 outcome_measure=MIC reported="0.03 µg/mL"
molecule="O=C1C=CC(O)N1Cc1ccccc1 (stereo unspecified)" outcome_measure=MIC reported="> 250 µg/mL"
molecule="CC1=CC(O)N(c2ccccc2)C1=O (stereo unspecified)" outcome_measure=MIC reported="> 250 µg/mL"
molecule=COc1ccc(N2C(=O)C=CC2=O)cc1OC outcome_measure=MIC reported="3.9 µg/mL"
molecule="CC(=O)N1CCN(c2ccc(OCC3COC(Cn4ccnc4)(c4ccc(Cl)cc4Cl)O3)cc2)CC1 (stereo unspecified)" outcome_measure=MIC reported="0.03 µg/mL"

Problem: Record request: MIC value, item CC1=CC(=O)N(CCCCc2ccccc2)C1O (stereo unspecified)
Solution: > 250 µg/mL

* * *

A collection of compounds and their measured MIC
Test system: Aspergillus niger
Assay: Antifungal activity against Aspergillus niger ATCC 9029
Format: functional

Example cases with answers are listed next.
compound="CC1=CC(O)N(CCCCc2ccccc2)C1=O (stereo unspecified)" reported="> 250 µg/mL"
compound=O=C1C(c2ccccc2)=C(c2ccccc2)C(=O)N1Cc1ccccc1 reported="> 250 µg/mL"
compound=CC1=C(C)C(=O)N(CCCc2ccccc2)C1=O reported="> 250 µg/mL"
compound="CC1=CC(O)N(Cc2ccccc2)C1=O (stereo unspecified)" reported="> 250 µg/mL"
compound=O=C(O)/C=C\C(=O)NCCCc1ccccc1 reported="> 250 µg/mL"

Problem: Which value of MIC has been reported for O=C(O)/C=C\C(=O)NCCCCc1ccccc1 in the records?
Solution: > 250 µg/mL

* * *

Tested on: Cryptococcus neoformans
Test: Antifungal activity against Cryptococcus neoformans ATCC 32264
Format: functional
outcome-measure: MFC

Use these answered entries as a reference point.
compound=O=C1C(Cl)=C(Cl)C(=O)N1c1ccccc1 system="Cryptococcus neoformans" reported="> 250 µg/mL"
compound=O=C(O)/C=C\C(=O)NCc1ccccc1 system="Cryptococcus neoformans" reported="> 250 µg/mL"
compound=O=C(O)/C=C\C(=O)NCCCCc1ccccc1 system="Cryptococcus neoformans" reported="> 250 µg/mL"
compound="CC1=CC(=O)N(CCCCc2ccccc2)C1O (configuration not stated)" system="Cryptococcus neoformans" reported="> 250 µg/mL"
compound="O=C1C=CC(O)N1CCCc1ccccc1 (configuration not stated)" system="Cryptococcus neoformans" reported="> 250 µg/mL"
compound=O=C1CCC(=O)N1c1ccccc1 system="Cryptococcus neoformans" reported="> 250 µg/mL"
compound="CC1=CC(O)N(CCCc2ccccc2)C1=O (configuration not stated)" system="Cryptococcus neoformans" reported="> 250 µg/mL"
compound=O=C(O)/C=C\C(=O)NCCc1ccccc1 system="Cryptococcus neoformans" reported="> 250 µg/mL"
compound=CC1=CC(=O)N(CCc2ccccc2)C1=O system="Cryptococcus neoformans" reported="62.5 µg/mL"
compound="CC1=CC(O)N(CCc2ccccc2)C1=O (configuration not stated)" system="Cryptococcus neoformans" reported="> 250 µg/mL"

Problem: Item CC1=C(C)C(=O)N(CCc2ccccc2)C1=O has what recorded MFC?
Solution: > 250 µg/mL

Problem: What does the record list as MFC for CC1=CC(=O)N(c2ccccc2)C1=O ?
Solution: 62.5 µg/mL

Problem: Quick one: MFC for CC1=CC(=O)N(Cc2ccccc2)C1=O ?
Solution: 31.2 µg/mL

Problem: Using the record for O=C1CCC(=O)N1Cc1ccccc1 , report its MFC.
Solution: > 250 µg/mL

Problem: Give the measured MFC of O=C1C=CC(=O)N1CCCc1ccccc1 .
Solution: 31.2 µg/mL

Problem: What does the record list as MFC for CC1=CC(=O)N(CCCc2ccccc2)C1=O ?
Solution: 31.2 µg/mL

Problem: Looking for the measured MFC of O=C1C(c2ccccc2)=C(c2ccccc2)C(=O)N1Cc1ccccc1 , can you help?
Solution: > 250 µg/mL

* * *

Entries and their MIC values follow.
Tested on: Aspergillus niger
Test: Antifungal activity against Aspergillus niger ATCC 9029
Assay type: functional

The examples below pair each entry with its known result.
smiles_repr=CC1=CC(=O)N(CCc2ccccc2)C1=O system="Aspergillus niger" reported="62.5 µg/mL"
smiles_repr=O=C1C(c2ccccc2)=C(c2ccccc2)C(=O)N1CCCc1ccccc1 system="Aspergillus niger" reported="> 250 µg/mL"
smiles_repr=O=C(O)/C=C\C(=O)Nc1ccccc1 system="Aspergillus niger" reported="> 250 µg/mL"

Problem: Which value of MIC has been reported for O=C1CCC(=O)N1Cc1ccccc1 in the records?
Solution: > 250 µg/mL

Problem: # input compound: CC1=C(C)C(=O)N(CCc2ccccc2)C1=O ; wanted: its MIC
Solution: > 250 µg/mL

* * *

Entries and their MFC values follow.
Test system: Aspergillus flavus
Test: Antifungal activity against Aspergillus flavus ATCC 9170
Format: functional

Problem: Please look up its MFC: CC1=CC(=O)N(CCCc2ccccc2)C1O (stereo unspecified)
Solution: > 250 µg/mL

Problem: Fill blank: measured MFC of the compound CC1=CC(O)N(CCCc2ccccc2)C1=O (stereo unspecified) is ____.
Solution: > 250 µg/mL

Problem: What does the data say about its MFC? Entry: CC1=CC(=O)N(c2ccccc2)C1O (stereo unspecified)
Solution: > 250 µg/mL

Problem: Which MFC value belongs to O=C1CCC(=O)N1c1ccccc1 ?
Solution: > 250 µg/mL

Problem: Report MFC for CC1=CC(=O)N(CCCCc2ccccc2)C1O (stereo unspecified) please.
Solution: > 250 µg/mL

Problem: Recorded MFC of CC1=CC(O)N(CCc2ccccc2)C1=O (stereo unspecified) , please.
Solution: > 250 µg/mL

Problem: If you can, please state the reported MFC value of O=C1C(c2ccccc2)=C(c2ccccc2)C(=O)N1c1ccccc1 .
Solution: > 250 µg/mL

Problem: Could you tell me which MFC is on file for O=C(O)/C=C\C(=O)NCCCCc1ccccc1 ?
Solution: > 250 µg/mL

Problem: What value of MFC has been recorded for this entry: O=C1C=CC(O)N1CCCc1ccccc1 (stereo unspecified)
Solution: > 250 µg/mL

Problem: What does the data say about its MFC? Entry: CC1=CC(=O)N(Cc2ccccc2)C1O (stereo unspecified)
Solution: > 250 µg/mL

Problem: Fill in: MFC of O=C(O)/C=C\C(=O)Nc1ccccc1 is ___
Solution: > 250 µg/mL

Problem: Field request: MFC | item: O=C(O)/C=C\C(=O)NCc1ccccc1
Solution: > 250 µg/mL

Problem: Look up MFC: O=C1CCC(=O)N1Cc1ccccc1
Solution: > 250 µg/mL

Problem: Fill in the blank: the reported MFC of CC1=CC(O)N(c2ccccc2)C1=O (stereo unspecified) is ____.
Solution: > 250 µg/mL

Problem: Tell me the measured MFC of O=C1C=CC(O)N1c1ccccc1 (stereo unspecified) , please.
Solution: > 250 µg/mL

Problem: Find the recorded MFC belonging to O=C1CCC(=O)N1CCCc1ccccc1 and report it.
Solution: > 250 µg/mL

Problem: Please report the recorded MFC for O=C(O)/C=C\C(=O)NCCCc1ccccc1 .
Solution: > 250 µg/mL

Problem: Quick check: MFC of CC1=C(C)C(=O)N(Cc2ccccc2)C1=O ?
Solution: > 250 µg/mL

Problem: // returns reported MFC for input O=C1C(c2ccccc2)=C(c2ccccc2)C(=O)N1Cc1ccccc1
Solution: > 250 µg/mL

Problem: Which value of MFC has been reported for O=C(O)/C=C\C(=O)NCCc1ccccc1 in the records?
Solution: > 250 µg/mL

Problem: Query: MFC; subject: O=C1C(c2ccccc2)=C(c2ccccc2)C(=O)N1CCCc1ccccc1
Solution: > 250 µg/mL

Problem: Fill in: MFC of O=C1C(c2ccccc2)=C(c2ccccc2)C(=O)N1CCc1ccccc1 is ___
Solution: > 250 µg/mL

Problem: Looking for the measured MFC of O=C1C(Cl)=C(Cl)C(=O)N1c1ccccc1 , can you help?
Solution: > 250 µg/mL

Problem: // lookup MFC for O=C1C(Cl)=C(Cl)C(=O)N1CCCc1ccccc1
Solution: 31.2 µg/mL

Cited source for all entries: ChEMBL document CHEMBL1772954
